target.system: HLA-B*08:01
run.description: IEDB peptide-MHC binding, purified MHC/direct/fluorescence; filed as Kd, often an IC50 or EC50 that approximates it; bounds were set here for any values at or beyond the usual limits of such assays
measurement.conditions: source organism: Vibrio cholerae V52
measurement.kind: Kd

[[record]]
item_sequence = "REVFDYLLP"
endpoint_value = "≥ 20 µM"


###

target.system: HLA-B*58:01
run.description: IEDB peptide-MHC binding, purified MHC/direct/fluorescence; filed as Kd, often an IC50 or EC50 that approximates it; bounds were set here for any values at or beyond the usual limits of such assays
measurement.conditions: source organism: Escherichia coli
measurement.kind: Kd

[[record]]
item_sequence = "LAAPCRNAL"
endpoint_value = "≥ 20 µM"


###

target.system: HLA-B*35:01
run.description: IEDB peptide-MHC binding, purified MHC/competitive/fluorescence; filed as Kd, often an IC50 or EC50 that approximates it; bounds were set here for any values at or beyond the usual limits of such assays
measurement.conditions: source organism: Escherichia coli 536
measurement.kind: Kd (nM)

[[record]]
item_sequence = "HPASRLFPF"
target_system = "HLA-B*35:01"
measurement_kind = "Kd"
endpoint_value = 0.2


###

target.system: HLA-A*69:01
run.description: IEDB peptide-MHC binding, purified MHC/direct/fluorescence; filed as Kd, often an IC50 or EC50 that approximates it; bounds were set here for any values at or beyond the usual limits of such assays
measurement.conditions: source organism: Vibrio cholerae
pKd: −log10 of the molar value.
measurement.kind: pKd

[[record]]
item_sequence = "FLHPKHWGT"
prefix_operator = "="
endpoint_value = 5.46

[[record]]
item_sequence = "REVFDYLLP"
prefix_operator = "≤"
endpoint_value = 4.70


###

target.system: HLA-B*39:01
run.description: IEDB peptide-MHC binding, purified MHC/competitive/fluorescence; filed as Kd, often an IC50 or EC50 that approximates it; bounds were set here for any values at or beyond the usual limits of such assays
measurement.conditions: source organism: New York virus
pKd: −log10 of the molar value.
measurement.kind: pKd

[[record]]
item_sequence = "FVKDWMDRI"
endpoint_value = "≤ 4.70"


###

target.system: HLA-B*45:06
run.description: IEDB peptide-MHC binding, purified MHC/competitive/fluorescence; filed as Kd, often an IC50 or EC50 that approximates it; bounds were set here for any values at or beyond the usual limits of such assays
measurement.conditions: source organism: Corynebacterium glutamicum ATCC 13032
measurement.kind: Kd

[[record]]
item_sequence = "AEHDPWWAV"
target_system = "HLA-B*45:06"
endpoint_value = "≥ 5 µM"


###

target.system: HLA-C*06:02
run.description: IEDB peptide-MHC binding, purified MHC/direct/fluorescence; filed as Kd, often an IC50 or EC50 that approximates it; bounds were set here for any values at or beyond the usual limits of such assays
measurement.conditions: source organism: Aquifex aeolicus VF5
pKd: −log10 of the molar value.
measurement.kind: pKd

[[record]]
item_sequence = "CRRLNTKYL"
endpoint_value = 6.76


###

target.system: HLA-A*68:01
run.description: IEDB peptide-MHC binding, purified MHC/competitive/radioactivity; filed as Kd, often an IC50 or EC50 that approximates it; bounds were set here for any values at or beyond the usual limits of such assays
measurement.conditions: source organism: Dengue virus 3 Martinique/1243/1999
pKd: −log10 of the molar value.
measurement.kind: pKd

[[record]]
item_sequence = "TTETPTWNR"
measurement_kind = "pKd"
endpoint_value = 7.84


###

target.system: HLA-A*32:01
run.description: IEDB peptide-MHC binding, purified MHC/competitive/radioactivity; filed as Kd, often an IC50 or EC50 that approximates it; bounds were set here for any values at or beyond the usual limits of such assays
measurement.conditions: source organism: Dengue virus 3 Singapore/8120/1995
pKd: −log10 of the molar value.
measurement.kind: pKd

[[record]]
item_sequence = "LLLVTHYAI"
measurement_kind = "pKd"
endpoint_value = 7.38


###

target.system: HLA-B*44:02
run.description: IEDB peptide-MHC binding, purified MHC/competitive/radioactivity; filed as Kd, often an IC50 or EC50 that approximates it; bounds were set here for any values at or beyond the usual limits of such assays
measurement.conditions: source organism: Dengue virus 2 Jamaica/1409/1983
pKd: −log10 of the molar value.
Quick list: pKd per entry.
measurement.kind: pKd

[[record]]
item_sequence = "AEISGSSPI"
target_system = "HLA-B*44:02"
endpoint_value = 7.84

[[record]]
item_sequence = "GEGLHKLGY"
target_system = "HLA-B*44:02"
endpoint_value = 6.92

[[record]]
item_sequence = "MEAQLIRQM"
target_system = "HLA-B*44:02"
endpoint_value = 7.95

[[record]]
item_sequence = "EEIAVQNWL"
target_system = "HLA-B*44:02"
endpoint_value = 8.16


###

target.system: HLA-A*02:01
run.description: IEDB peptide-MHC binding, purified MHC/competitive/fluorescence; bounds were set here for any values at or beyond the usual limits of such assays
measurement.conditions: source organism: Sudan ebolavirus
measurement.kind: IC50 (µM)

[[record]]
item_sequence = "TGPCPGDYA"
prefix_operator = "="
endpoint_value = 34.9

[[record]]
item_sequence = "LTTPENITT"
prefix_operator = "≥"
endpoint_value = 157

[[record]]
item_sequence = "VIYRGVNFA"
prefix_operator = "="
endpoint_value = 3.89

[[record]]
item_sequence = "TGILGSLGL"
prefix_operator = "≥"
endpoint_value = 92.7

[[record]]
item_sequence = "LMHNQNALV"
prefix_operator = "="
endpoint_value = 1.16

[[record]]
item_sequence = "TTPENITTA"
prefix_operator = "="
endpoint_value = 19

[[record]]
item_sequence = "VIILFQKAF"
prefix_operator = "≥"
endpoint_value = 544

[[record]]
item_sequence = "LSLLQLPRD"
prefix_operator = "≥"
endpoint_value = 173


###

target.system: HLA-C*12:03
run.description: IEDB peptide-MHC binding, purified MHC/direct/fluorescence; filed as Kd, often an IC50 or EC50 that approximates it; bounds were set here for any values at or beyond the usual limits of such assays
measurement.conditions: source organism: Francisella tularensis subsp. tularensis WY96-3418
measurement.kind: Kd (nM)

[[record]]
item_sequence = "YLYPWSLGL"
endpoint_value = 4


###

target.system: HLA-B*07:02
run.description: IEDB peptide-MHC binding, purified MHC/direct/fluorescence; filed as Kd, often an IC50 or EC50 that approximates it; bounds were set here for any values at or beyond the usual limits of such assays
measurement.conditions: source organism: Mus musculus
measurement.kind: Kd (nM)

[[record]]
item_sequence = "FPEHIFPAL"
endpoint_value = 937


###

target.system: HLA-B*15:42
run.description: IEDB peptide-MHC binding, purified MHC/competitive/fluorescence; filed as Kd, often an IC50 or EC50 that approximates it; bounds were set here for any values at or beyond the usual limits of such assays
measurement.conditions: source organism: Corynebacterium glutamicum ATCC 13032
pKd: −log10 of the molar value.
measurement.kind: pKd

[[record]]
item_sequence = "AEHDPWWAV"
endpoint_value = "≤ 5.30"


###

target.system: HLA-B*08:01
run.description: IEDB peptide-MHC binding, purified MHC/direct/fluorescence; filed as Kd, often an IC50 or EC50 that approximates it; bounds were set here for any values at or beyond the usual limits of such assays
measurement.conditions: source organism: Escherichia coli O157:H7
pKd: −log10 of the molar value.
measurement.kind: pKd

[[record]]
item_sequence = "GLKRGGVLL"
endpoint_value = "≤ 4.70"


###

target.system: HLA-B*27:03
run.description: IEDB peptide-MHC binding, purified MHC/competitive/fluorescence; filed as Kd, often an IC50 or EC50 that approximates it; bounds were set here for any values at or beyond the usual limits of such assays
measurement.conditions: source organism: Vibrio antiquarius
measurement.kind: Kd

[[record]]
item_sequence = "VTGCASLYV"
endpoint_value = "≥ 20 µM"


###

target.system: HLA-B*40:01
run.description: IEDB peptide-MHC binding, purified MHC/competitive/radioactivity; filed as Kd, often an IC50 or EC50 that approximates it; bounds were set here for any values at or beyond the usual limits of such assays
measurement.conditions: source organism: SARS coronavirus Tor2
Let's look at some sequences and their measured Kd.
measurement.kind: Kd

[[record]]
item_sequence = "GETALALLLL"
target_system = "HLA-B*40:01"
endpoint_value = "16.1 nM"

[[record]]
item_sequence = "WEILKFLIT"
target_system = "HLA-B*40:01"
endpoint_value = "4360 nM"

[[record]]
item_sequence = "PEYFNSVCRL"
target_system = "HLA-B*40:01"
endpoint_value = "2830 nM"

[[record]]
item_sequence = "TEFACVVAEA"
target_system = "HLA-B*40:01"
endpoint_value = "1510 nM"

[[record]]
item_sequence = "VENPDILRV"
target_system = "HLA-B*40:01"
endpoint_value = "≥ 21800 nM"

[[record]]
item_sequence = "VEFHLDGEVL"
target_system = "HLA-B*40:01"
endpoint_value = "0.877 nM"

[[record]]
item_sequence = "EELFYSYAT"
target_system = "HLA-B*40:01"
endpoint_value = "691 nM"

[[record]]
item_sequence = "KEGIVWVAT"
target_system = "HLA-B*40:01"
endpoint_value = "6260 nM"

